Consider the following compounds and their measured TGI readings.
# System: PC-3 prostate
# TEST: NCI tumour cell line growth inhibition, 48 h

Below are worked cases with known answers.
O=C(CSSCC(=O)c1ccc(Cl)cc1)c1ccc(Cl)cc1; 30.5 µM
O=[N+]([O-])c1ccccc1/C=N\NC(=S)N/N=C/c1ccccc1[N+](=O)[O-]; > 100 µM
N=c1oc2ccc3ccccc3c2cc1-c1nc2ccccc2c(=O)[nH]1; > 100 µM
Cc1cc(NC(=O)NCCOc2ccc(N3C(N)=NC(N)=NC3(C)C)cc2Cl)ccc1S(=O)(=O)F; 22.3 µM
CC(=O)CC[N+](C)(C)C; 99.5 µM

Item under review: "O=C(O)CCC(O)=C1S(=O)(=O)OCCOS1(=O)=O" . Reported TGI?
> 100 µM
